organism: Rattus norvegicus; experiment: DrugMatrix - Regimen: Daily Repeat; format: toxicity, organism-based, Sprague-Dawley; design: regimen Daily Repeat, gender Male, age 6-8 weeks; details: in vivo, po, 0 mg/kg, 120 h, tissue Blood, route oral GAVAGE, dose level Control, time 5 day, vehicle 100 % WATER
READOUT_KIND: MEAN CORPUSCULAR HEMOGLOBIN CONCENTRATION
State the value, then name its unit.

> print(dat)
                                   compound  measured.result
1       CC(C)(C)NC[C@H](O)COc1nsnc1N1CCOCC1       38.82 G/DL
2  CCCc1nn(C)c2c(=O)[nH]c(-c3cc(S(=O)(=O)N4CCN(C)CC4)ccc3OCC)nc12       39.57 G/DL

Query (compound): O=C(O)c1cc(=O)c2c(OCC(O)COc3cccc4oc(C(=O)O)cc(=O)c34)cccc2o1 ; field requested: MEAN CORPUSCULAR HEMOGLOBIN CONCENTRATION 40.07 G/DL

Next compound: CN1C2CCCC1CC(NC(=O)c1nn(C)c3ccccc13)C2 (stereo not given) 38.82 G/DL

And CNS(=O)(=O)Cc1ccc2[nH]cc(CCN(C)C)c2c1 ? 38.52 G/DL

---

ABSOLUTE EOSINOPHIL reference
organism: Rattus norvegicus; experiment: DrugMatrix - Regimen: Daily Repeat; assay type: toxicity, organism-based, Sprague-Dawley; design: regimen Daily Repeat, gender Male, age 6-8 weeks; conditions: in vivo, po, 0 mg/kg, 72 h, tissue Blood, route oral GAVAGE, dose level Control, time 3 day, vehicle 100 % WATER
Show the value, then the unit it is measured in.

Past entries and their recorded results:
COMPOUND	READOUT_KIND	MEASURED_RESULT
CC[C@H]1OC(=O)[C@H](C)[C@@H](O[C@H]2C[C@@](C)(OC)[C@@H](O)[C@H](C)O2)[C@H](C)[C@@H](O[C@@H]2O[C@H](C)C[C@H](N(C)C)[C@H]2O)[C@](C)(O)C[C@@H](C)CN(C)[C@H](C)[C@@H](O)[C@]1(C)O	ABSOLUTE EOSINOPHIL	33.67 CELLS/uL
O=P1(N(CCCl)CCCl)NCCCO1 (centres undefined) [CYCLOPHOSPHAMIDE ANHYDROUS]	ABSOLUTE EOSINOPHIL	32.5 CELLS/uL
CNS(=O)(=O)Cc1ccc2[nH]cc(CCN(C)C)c2c1	ABSOLUTE EOSINOPHIL	86.33 CELLS/uL

// switching to the query compound
What value of ABSOLUTE EOSINOPHIL has been recorded for this entry: OCCO 0 CELLS/uL

---

species: Rattus norvegicus; experiment: DrugMatrix - Regimen: Daily Repeat; assay type: toxicity, organism-based, Sprague-Dawley; set-up: regimen Daily Repeat, gender Male, age 6-8 weeks; conditions: in vivo, po, 0 mg/kg, 120 h, tissue Blood, route oral GAVAGE, dose level Control, time 5 day, […]
Consider the following molecules and their measured MONOCYTE readings.
Answer with a number only, understood to be in %.

> print(dat)
                                   molecule  readout.kind  unit.descriptor  measured.result
1  OCCN1CCN(CCCN2c3ccccc3Sc3ccc(C(F)(F)F)cc32)CC1      MONOCYTE                %             0.67
2  CN(CCOc1ccc(CC2SC(=O)NC2=O)cc1)c1ccccn1 (centres undefined)      MONOCYTE                %             1.17
3  CC(CCc1ccc(O)cc1)NCCc1ccc(O)c(O)c1 (centres undefined)      MONOCYTE                %              2.1

Name the recorded MONOCYTE for CC[C@H](C)C(=O)O[C@H]1C[C@@H](C)C=C2C=C[C@H](C)[C@H](CC[C@@H]3C[C@@H](O)CC(=O)O3)[C@H]21 . 1

---

Let's look at some compounds and their measured LEUKOCYTE COUNT.
organism: Rattus norvegicus; assay: DrugMatrix - Regimen: Daily Repeat; type: toxicity, organism-based, Sprague-Dawley; set-up: regimen Daily Repeat, gender Male, age 6-8 weeks; settings: in vivo, po, 100 mg/kg, 120 h, tissue Blood, route oral GAVAGE, dose level Low, time 5 day, vehicle .5 % CMC
I only need the number, in x10E3/uL, no unit after it.

> print(dat)
                                   compound  measured.result
1  CC[C@]1(O)CC[C@H]2[C@@H]3CCC4=CCCC[C@@H]4[C@H]3CC[C@@]21C            12.16

What does the data say about its LEUKOCYTE COUNT? Entry: CC=Cc1ccc(O)c(OC)c1 15.03

Entry C#C[C@]1(O)CC[C@H]2[C@@H]3CCC4=Cc5oncc5C[C@]4(C)[C@H]3CC[C@@]21C please 14.87

Now consider Nc1nc2c(c(=O)[nH]1)N(C=O)C(CNc1ccc(C(=O)N[C@@H](CCC(=O)O)C(=O)O)cc1)CN2 (some centres undefined) and answer again. 14.37

---

// HEMATOCRIT lookup, one value per entry
species: Rattus norvegicus; assay: DrugMatrix - Regimen: Daily Repeat; assay type: toxicity, organism-based, Sprague-Dawley; set-up: regimen Daily Repeat, gender Male, age 6-8 weeks; conditions: in vivo, po, 0 mg/kg, 72 h, tissue Blood, route oral GAVAGE, dose level Control, time 3 day, vehicle 100 % WATER
Field format: number, assumed %, no unit text.

Query (molecule): OCCO [ETHYLENE GLYCOL] ; field requested: HEMATOCRIT 33.02

Record: CCCc1nn(C)c2c(=O)[nH]c(-c3cc(S(=O)(=O)N4CCN(C)CC4)ccc3OCC)nc12 33.02

Now the same for Nc1ccc(S(=O)(=O)Nc2nccs2)cc1 [SULFATHIAZOLE] 34.5

---

species on record: Rattus norvegicus; experiment: DrugMatrix - Regimen: Daily Repeat; format: toxicity, organism-based, Sprague-Dawley; set-up: regimen Daily Repeat, gender Male, age 6-8 weeks; conditions: in vivo, po, 15 mg/kg, 120 h, tissue Blood, route oral GAVAGE, dose level High, time 5 day, […]
READOUT_KIND: ABSOLUTE EOSINOPHIL (cells/µL)
Your answer should be a plain number; it is taken to be in cells/µL.

What value of measured ABSOLUTE EOSINOPHIL is listed for CC(CCc1ccc(O)cc1)NCCc1ccc(O)c(O)c1 (stereo unspecified) ? 26.7

---

Quick list: TOTAL BILIRUBIN per entry.
organism: Rattus norvegicus; assay: DrugMatrix - Regimen: Daily Repeat; assay type: toxicity, organism-based, Sprague-Dawley; parameters: regimen Daily Repeat, gender Male, age 6-8 weeks; settings: in vivo, po, 0 mg/kg, 120 h, tissue Plasma, route oral GAVAGE, dose level Control, time 5 day, vehicle 100 % SALINE
Entry rule: numbers only, all in mg/dL.

Consider the worked cases shown below.
> print(dat)
                                   compound  measured.result
1  CCCc1nn(C)c2c(=O)[nH]c(-c3cc(S(=O)(=O)N4CCN(C)CC4)ccc3OCC)nc12              0.2
2     CC(=O)OCC(CCn1cnc2cnc(N)nc21)COC(C)=O              0.2
3  Cc1cc(CC(=O)O)n(C)c1C(=O)c1ccc(Cl)cc1 [ZOMEPIRAC]             0.23

Which measured TOTAL BILIRUBIN value corresponds to Oc1ccccc1O ? 0.23

---

species: Rattus norvegicus; assay: DrugMatrix - Regimen: Daily Repeat; format: toxicity, organism-based, Sprague-Dawley; design: regimen Daily Repeat, gender Male, age 6-8 weeks; settings: in vivo, po, 0 mg/kg, 120 h, tissue Plasma, route oral GAVAGE, dose level Control, time 5 day, […]
READOUT_KIND: LIPASE (u/L)
Write down the numeric answer in u/L and omit the unit.

# count of solved cases: 4
> print(dat)
                                   compound  measured.result
1  C#C[C@]1(O)CC[C@H]2[C@@H]3CCc4cc(O)ccc4[C@H]3CC[C@@]21C [ETHINYL ESTRADIOL]             6.83
2  CC(=O)Nc1nnc(S(N)(=O)=O)s1 [ACETAZOLAMIDE]             10.5
3  CN(CCOc1ccc(CC2SC(=O)NC2=O)cc1)c1ccccn1 (stereo not given) [ROSIGLITAZONE]              9.5
4  OCCN1CCN(CCCN2c3ccccc3Sc3ccc(C(F)(F)F)cc32)CC1 [FLUPHENAZINE]             10.5

Lab note: next compound to report on.
Return reported LIPASE; argument: CC(CCc1ccc(O)cc1)NCCc1ccc(O)c(O)c1 (stereo not given) [DOBUTAMINE] 10.67
